Test system: trypsin
Protocol Details: in vitro
Measurement Context: isolated enzyme trypsin, pH 7.4
Ends that are not written are not given here.
Attribute Measured: remaining at 0.25 h, 2 mg/mL (%)

INSERT INTO results (substance, measured_result) VALUES
  ('GRFKRFRKKFKKLFKKLS-OH [BMAP-18, G-R-F-K-R-F-R-K-K-F-K-K-L-F-K-K-L-S-OH]', 17.8);

* * *

Tested on: trypsin
Protocol Details: in vitro
Measurement Context: isolated enzyme trypsin, pH 7.4
Numbered stars: 1 amine (or outer) side, 2 acyl side, 3 side chain; on linkers, the order of the positions; unused ones are H or OH. Bridge positions count the residues as written; N and C are the ends. Peptide text beside a SMILES is read from it. X1 = O=C(NC[*:1])NC[*:2]
Attribute Measured: remaining at 0.25 h, 2 mg/mL (%)

INSERT INTO assay_data (molecule, u, measured_result) VALUES
  ('CC(C)CC(NC(=O)C(CCCCN)NC(=O)C(CCCCN)NC(=O)C(Cc1ccccc1)NC(=O)C(CC(C)C)NC(=O)C(CCCCN)NC(=O)C(CCCCN)NC(=O)C(Cc1ccccc1)NC(=O)C(CCCCN)NC(=O)C1CSCNC(=O)NCSCC(NC(=O)C(Cc2ccccc2)NC(=O)C(CCCNC(=N)N)NC(=O)CN)C(=O)NC(CCCNC(=N)N)C(=O)NC(Cc2ccccc2)C(=O)NC(CCCNC(=N)N)C(=O)N1)C(=O)NC(CO)C(=O)O (stereo not shown) [SAH1] (H-GRFCRFRCKFKKLFKKLS-OH; linker 4-8 via X1; configuration not given here)', '%', 67.6);

* * *

System: trypsin
Protocol Details: in vitro
Measurement Context: isolated enzyme trypsin, pH 7.4
Numbered stars: 1 amine (or outer) side, 2 acyl side, 3 side chain; on linkers, the order of the positions; unused ones are H or OH. Bridge positions count the residues as written; N and C are the ends. Peptide text beside a SMILES is read from it. X1 = O=C(NC[*:1])NC[*:2]
Attribute Measured: remaining at 1 h, 2 mg/mL (%)

INSERT INTO measurements (molecule, measured_result) VALUES
  ('CC(C)CC(NC(=O)C(CCCCN)NC(=O)C(CCCCN)NC(=O)C(Cc1ccccc1)NC(=O)C(CC(C)C)NC(=O)C(CCCCN)NC(=O)C(CCCCN)NC(=O)C(Cc1ccccc1)NC(=O)C(CCCCN)NC(=O)C1CSCNC(=O)NCSCC(NC(=O)C(Cc2ccccc2)NC(=O)C(CCCNC(=N)N)NC(=O)CN)C(=O)NC(CCCNC(=N)N)C(=O)NC(Cc2ccccc2)C(=O)NC(CCCNC(=N)N)C(=O)N1)C(=O)NC(CO)C(=O)O (stereo not shown) [SAH1] (H-GRFCRFRCKFKKLFKKLS-OH; linker 4-8 via X1; configuration not given here)', 30.2);
